- System: HepaRG cells
- PROTOCOL: Metabolic modification assay: dual ATP and cell viability (total cellular protein) assessment, extended dosing
- Assay type: cell-based, human
- EXPERIMENTAL_SETUP: Homo sapiens, HepaRG, wk 3, galactose media, total cellular protein; read-out: IC50-viability ± S.D., Galactose

{"STRUCTURE_STRING": "O=c1[nH]c(=O)n([C@@H]2O[C@H](CO)[C@@H](O)[C@@H]2F)cc1I", "TARGET_UNDER_TEST": "HepaRG cells", "IC50 [µM]": 15.5}

---

- Tested on: HepaRG cells
- PROTOCOL: Metabolic modification assay: dual ATP and cell viability (total cellular protein) assessment, extended dosing
- Assay type: cell-based, human
- EXPERIMENTAL_SETUP: Homo sapiens, HepaRG, wk 2, glucose media, total cellular protein; read-out: IC50-viability ± S.D., Glucose
- Protocol: In accordance with Biopredic international guidelines, undifferentiated HepaRG cells were seeded into clear flat bottomed 96 well (9000 cells/well) or Seahorse plates (4000 cells/well). […] This was performed as previously described ([Kamalian et al., 2018]). […] IC50 values were calculated using Prism (GraphPad, California, USA) (Table 1) and criteria applied to identify a compound as a direct mitochondrial toxin. […]
MEASURE: IC50 (µM)

{"STRUCTURE_STRING": "O=c1[nH]c(=O)n([C@@H]2O[C@H](CO)[C@@H](O)[C@@H]2F)cc1I", "MEASURE": "IC50", "U": "µM", "VALUE": 26.1}

Source listed as paper PMC7456776.
